- System: cells expressing pluripotency markers derived from human embryonic stem cells
- assayRemarks: MTS viability (toxicity) assay of cells expressing pluripotency markers
- Assay type: cell-based
- settings: cmpd conc 2.5 μM; MTS on day 4
reportedMetric: Average of raw data (duplicate), optical density at 490 nm
API note: the answer field is a bare number with no unit suffix.

O=C1NC(=O)C(c2cn(-c3cccnc3)c3ccccc23)=C1c1cn(CCO)c2ccccc12 0.7517
O=C1NC(=O)C(c2nn(CCCO)c3ccccc23)=C1c1cn(-c2cccnc2)c2ccc(Cl)cc12 0.7886
O=C1NC(=O)C(c2nn(CCO)c3ccccc23)=C1c1cn(-c2cncnc2)c2ccccc12 0.7474

// below: Average of raw data (duplicate), optical density at 490 nm requested for another compound
Inquiry: May I ask what Average of raw data (duplicate), optical density at 490 nm has been recorded for CN1CCN(C)CCn2cc(c3ccccc32)C2=C(C(=O)NC2=O)c2cn(c3ccccc23)CC1 ?
Reply text: 0.8169

###

- Test system: human embryonic stem cells (H9 or H1 lines)
- assayRemarks: Plate reader (MTS) proliferation assay
- Type: cell-based
- settings: Homo sapiens, Embryonic stem cell, 96 h; 10 μM test compound with 100 ng/ml activin A on days 1-2; MTS OD490 on day 4; vs Activin A/Wnt3a positive control; strong and moderate hits
Recorded activity at 10 µM values for a group of compounds are listed next.
Kindly provide the numeric value in % only, without the unit symbol.

compound	activity at 10 µM (%)
O=C1NC(=O)C(c2cn(-c3cncnc3)c3ccccc23)=C1c1cn(CCO)c2ccccc12	147
COc1ncc(C2=C(c3cn(CCCC#N)c4ncccc34)C(=O)NC2=O)c(OC)n1	130
Cn1cc(C2=C(c3nn(CC(=O)NCCO)c4ccccc34)C(=O)NC2=O)c2cc(Cl)ccc21	131
O=C1NC(=O)C2=C1Nc1cccc(c1)OCCC/C=C\CCCOc1cccc2c1	93
COc1ncc(C2=C(c3cn(CCCO)c4ncccc34)C(=O)NC2=O)c(OC)n1	148

Inquiry: Consider the compound OCCC#Cc1nc(-c2ccc(F)cc2)c(-c2ccncc2)n1CCCc1ccccc1 and give its measured activity at 10 µM.
Reply text: 84.7

Inquiry: Given the entry COC(=O)c1cncc(-n2cc(C3=C(c4nn(CCO)c5ccccc45)C(=O)NC3=O)c3cc(Cl)ccc32)c1 , report its measured activity at 10 µM.
Reply text: 63.3

Inquiry: Consider the compound shown here: O=C1NC(=O)C(c2cn(-c3cccnc3)c3ccccc23)=C1c1cn(CCO)c2ccccc12 What is its recorded activity at 10 µM?
Reply text: 108

Inquiry: Can you look up the measured activity at 10 µM of Cn1ccc(C2=C(c3cn(CCCC#N)c4ncccc34)C(=O)NC2=O)n1 for me?
Reply text: 146

Inquiry: What measured activity at 10 µM goes with COc1ncc(C2=C(c3cn(CCc4ccccc4)c4ncccc34)C(=O)NC2=O)c(OC)n1 ?
Reply text: 88

Inquiry: Could you tell me which activity at 10 µM is on file for O=C1NC(=O)C(c2cn(CCOCCOCCNC3CCCc4ccccc43)c3ccccc23)=C1c1cn(CCNC2CCCc3ccccc32)c2ccccc12 (stereo not drawn) ?
Reply text: 84

Inquiry: Would you mind telling me what activity at 10 µM value was observed for Cc1c[nH]c(-c2cnc(NCCNc3ccc(C#N)cn3)nc2-c2ccc(Cl)cc2Cl)n1 ?
Reply text: 131

###

- System: cells expressing pluripotency markers derived from human embryonic stem cells
- assayRemarks: MTS viability (toxicity) assay of cells expressing pluripotency markers
- Type: cell-based
- settings: cmpd conc 2.5 μM; MTS on day 4
reportedMetric: Average of raw data (duplicate), optical density at 490 nm
A bare number is all that is needed in reply.

Some compounds with known Average of raw data (duplicate), optical density at 490 nm results, for comparison:
compound	systemUnderTest	resultValue
O=C1NC(=O)C2=C1Nc1cccc(c1)OCCC/C=C\CCCOc1cccc2c1 [Compound 233]	cells expressing pluripotency markers derived from human embryonic stem cells	0.4267
O=C1NC(=O)C2=C1c1cn(c3ccccc13)CCOCCOCCN(Cc1cccc3ccccc13)CCn1cc2c2ccccc21 [Compound 136]	cells expressing pluripotency markers derived from human embryonic stem cells	0.8432
CN1CCOCCOCCN(C)CCn2cc(c3ccccc32)C2=C(C(=O)NC2=O)c2cn(c3ccccc23)CC1 [Compound 112]	cells expressing pluripotency markers derived from human embryonic stem cells	0.8103

Then there is this compound:
Inquiry: So what does the record say about Average of raw data (duplicate), optical density at 490 nm for CN(C)CCCn1c2c(c3ccccc31)C1=C(C(=O)NC1=O)N(c1cccc(Cl)c1)C2 [Compound 101] ?
Reply text: 0.7987

###

- Test system: human embryonic stem cells (H9 or H1 lines)
- assayRemarks: Plate reader (MTS) proliferation assay
- Type: cell-based
- settings: average of replicate raw data
Binary label based on Average with cut-off 1: below gives true (1), not below gives false (0).

Solved cases below.
compound	qualitativeLabel
O=C1NC(=O)C(c2cccc3c2sc2ccccc23)=C1c1cn(CCCO)c2ncccc12	true (1)
O=C1NC(=O)C2=C1c1cn(c3ccccc13)CCOCCOCCOCCOCCn1cc2c2ccccc21	false (0)
COCCCn1cc(C2=C(c3ccccc3OC)C(=O)NC2=O)c2cnccc21	false (0)
Cn1cc(C2=C(c3nn(CCCn4ccnn4)c4ccccc34)C(=O)NC2=O)c2cc(Cl)ccc21	false (0)
O=C1NC(=O)C2=C1c1cn(c3ncccc13)CCOCCOCCn1cc2c2cccnc21	true (1)

Inquiry: # strict comparison: is reported Average < 1? input = CN(C)c1ccc(-n2cc(C3=C(c4nn(CCO)c5ccccc45)C(=O)NC3=O)c3cc(Cl)ccc32)cn1
Reply text: false (0)

Inquiry: # check: Average < 1 for Cc1c[nH]c(-c2cnc(NCCNc3ccc(C#N)cn3)nc2-c2ccc(Cl)cc2Cl)n1
Reply text: false (0)

Inquiry: API: query returns whether the compound falls strictly under 1 in Average. Query: COc1ncc(C2=C(c3cn(CCc4ccccc4)c4ncccc34)C(=O)NC2=O)c(OC)n1
Reply text: true (1)

Inquiry: Strictly below 1: is that where Average of O=C1NC(=O)C2=C1c1cn(c3ccccc13)CCOCCOCCOCCn1cc2c2ccccc21 sits?
Reply text: false (0)

Inquiry: Strictly below 1 in Average? COc1ccccc1C1=C(c2cn(-c3cccnc3)c3ccccc23)C(=O)NC1=O
Reply text: false (0)

###

Reported values of viability at 4 days, 2.5 μM for individual entries
- assayRemarks: MTS viability (toxicity) assay of cells expressing pluripotency markers
- Type: cell-based, human
- settings: human, cmpd conc 2.5 μM; MTS on day 4; relative to Activin A + Wnt3a positive control; read-out: % Control (percentage viability of control)
- Experimental: Derivation and maintenance of cells expressing pluripotency makers was conducted as has been described in Example 2. […] Screening was conducted using test compounds from a proprietary library of small molecules selected for their ability to inhibit GSK-3B enzyme activity. […] For assay, cells expressing pluripotency markers were washed, counted, and plated in normal culture medium at a seeding density of 20,000 cells per well in 96-well clear-bottom, dark-well plates (Costar). […]
Dear colleague, please return just the value in %, with no unit written.

Recorded results for 3 compounds are shown here.
compound	measureUnit	viability at 4 days, 2.5 μM
CN(C)c1ccc(-n2cc(C3=C(c4nn(CCO)c5ccccc45)C(=O)NC3=O)c3cc(Cl)ccc32)cn1 [Compound 148]	%	20.4
Cc1c[nH]c(-c2cnc(NCCNc3ccc(C#N)cn3)nc2-c2ccc(Cl)cc2Cl)n1 [Compound 221]	%	112
O=C1NC(=O)C(c2nn(CCO)c3ccccc23)=C1c1cn(-c2cncnc2)c2ccccc12 [Compound 226]	%	86.3

Next compound, viability at 4 days, 2.5 μM to be filled in.
Inquiry: Which viability at 4 days, 2.5 μM value is on record for CN(CCO)CCCn1nc(C2=C(c3cn(-c4cccnc4)c4ccccc34)C(=O)NC2=O)c2ccccc21 [Compound 198] ?
Reply text: 92.5

###

- System: human embryonic stem cells (H9 or H1 lines)
- assayRemarks: Plate reader (MTS) proliferation assay
- Type: cell-based
- settings: average of replicate raw data
reportedMetric: Average
Answer as a number with no unit attached.

Example molecules with recorded Average:
OCCC#Cc1nc(-c2ccc(F)cc2)c(-c2ccncc2)n1CCCc1ccccc1 1.2242
O=C1NC(=O)C(c2nn(CCCO)c3ccccc23)=C1c1cn(C2CCOCC2)c2ccccc12 1.0282
Cn1ccc(C2=C(c3cn(CCCC#N)c4ncccc34)C(=O)NC2=O)n1 0.9819

Turning now to a further molecule:
Inquiry: Give its Average value. Item: CCN1CCOCCOCCn2cc(c3ccccc32)C2=C(C(=O)NC2=O)c2cn(c3ccccc23)CC1
Reply text: 0.5236

###

- Tested on: cells expressing pluripotency markers derived from human embryonic stem cells
- assayRemarks: MTS viability (toxicity) assay of cells expressing pluripotency markers
- Assay type: cell-based
- settings: MTS viability assay raw reading, replicate 2
// boundary case: Raw data (duplicate), second replicate equal to 0.7 maps to Not fulfilled; strictly smaller maps to Fulfilled

Illustrative cases are given below, each with its answer.
compound	qualitativeLabel
O=C1NC(=O)C(c2cn(CCCO)c3ncccc23)=C1c1ccn(CCCO)n1	Not fulfilled
O=C1NC(=O)C2=C1c1cn(c3ncccc13)CCOCCOCCOCCn1cc2c2cccnc21 [Compound 2]	Not fulfilled
O=C1NC(=O)C(c2cn(CCCO)c3ncccc23)=C1c1cccs1	Not fulfilled
CN1CCCn2cc(c3ccccc32)C2=C(C(=O)NC2=O)c2cn(c3ccccc23)CCOCCOCC1	Fulfilled
CC(C)(O)CCn1nc(C2=C(c3cn(-c4cccnc4)c4ccccc34)C(=O)NC2=O)c2ccccc21	Not fulfilled

Now, please, on to the next compound.
Inquiry: State whether 0.7 exceeds Raw data (duplicate), second replicate recorded for O=C1NC(=O)C2=C1c1cn(c3ncccc13)CCOCCOCCOCCOCCOCCn1cc2c2cccnc21 .
Reply text: Fulfilled

Cited source for all entries: patent US20130337564A1
